- ASSAYED_SYSTEM: CYP1A2 (Homo sapiens)
- Construct: from tissue; host or cells: human liver microsomes
- Sequence (P05177 whole entry): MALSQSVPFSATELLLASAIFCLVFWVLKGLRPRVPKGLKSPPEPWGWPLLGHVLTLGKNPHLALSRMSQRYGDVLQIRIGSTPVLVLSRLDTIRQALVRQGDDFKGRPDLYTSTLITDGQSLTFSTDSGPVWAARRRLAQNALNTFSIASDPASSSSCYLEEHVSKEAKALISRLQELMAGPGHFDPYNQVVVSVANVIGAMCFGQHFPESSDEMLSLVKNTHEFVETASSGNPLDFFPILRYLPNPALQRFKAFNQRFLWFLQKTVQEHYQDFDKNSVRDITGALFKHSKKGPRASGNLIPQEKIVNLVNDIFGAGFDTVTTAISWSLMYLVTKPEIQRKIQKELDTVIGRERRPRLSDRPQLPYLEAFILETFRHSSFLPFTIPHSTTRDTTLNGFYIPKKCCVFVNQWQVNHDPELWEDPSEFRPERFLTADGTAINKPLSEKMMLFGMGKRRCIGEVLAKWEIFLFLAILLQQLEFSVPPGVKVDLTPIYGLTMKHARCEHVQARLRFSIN
- METHOD_NOTES: CYP profiling: human liver microsomes with CYP1A2 inhibitor furafylline
- Assay type: in vitro ADME
- EXPERIMENTAL_CONDITIONS: HLMs, 30 min
Examples of compounds with documented % Inhibition Relative to Negative Control, 1A2 follow.
Express it in %; write the number only.

Some solved entries appear below for comparison.
COMPOUND	RESULT_UNITS	RESULT
N[C@@H](c1csc(C(=O)c2c[nH]c3cc(F)ccc23)n1)C(F)(F)F [ARI-224]	%	22
O=C(c1nc(C2(O)CC2)cs1)c1c[nH]c2cc(F)ccc12 [ARI-221]	%	71
CC[C@@H](N)c1csc(C(=O)c2c[nH]c3ccc(F)cc23)n1 [ARI-219]	%	62
NC1(c2csc(C(=O)c3c[nH]c4cc(F)ccc34)n2)CC1 [ARI-225]	%	74

Recorded % Inhibition Relative to Negative Control, 1A2 of Cc1ncc2n1-c1ccc(Cl)cc1C(c1ccccc1F)=NC2 [Midazolam] , please.
2

// provenance: patent US11390621B2
